Measured pIC50 accompanies every entry in the list below.
target: His-GST-TVMV-hRIPK1(1-324) (Homo sapiens, UniProt Q13546); construct: The coding region of human RIPK1(1-324) flanked by NdeI site at 5′ end; made in house; host or cells: Spodoptera frugiperda Sf9 insect cells (baculovirus, Bac-to-Bac); assay: biochemical; format: binding; details: HTRF probe displacement, 1 h at rt; read-out: RIPK1 IC50
Sequence (Q13546 1-324): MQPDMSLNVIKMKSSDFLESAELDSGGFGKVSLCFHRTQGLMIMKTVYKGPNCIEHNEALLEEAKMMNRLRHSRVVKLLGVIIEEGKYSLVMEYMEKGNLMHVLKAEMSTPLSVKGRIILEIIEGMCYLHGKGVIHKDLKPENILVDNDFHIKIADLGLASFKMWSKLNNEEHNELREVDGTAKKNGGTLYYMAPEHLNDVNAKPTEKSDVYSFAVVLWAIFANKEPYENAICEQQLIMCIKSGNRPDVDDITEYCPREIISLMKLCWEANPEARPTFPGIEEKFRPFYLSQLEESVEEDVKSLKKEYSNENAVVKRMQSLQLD
pIC50: −log10 of the molar value.
MEASURE NAME: pIC50

COMPOUND	MEASURED TARGET	RESULT VALUE
Cc1ccc(-c2ccn3nc(N)nc3c2)c(F)c1C(=O)NCCC(O)C1CCCCC1 (single isomer, unassigned) [Example 42]	His-GST-TVMV-hRIPK1(1-324) (Homo sapiens, UniProt Q13546)	8.89
[2H]C([2H])([2H])c1ccc(-c2ccn3nc(N)nc3c2)c(F)c1C(=O)NC[C@H](F)[C@](C)(O)c1ccc(F)cc1 [Example 215]	His-GST-TVMV-hRIPK1(1-324) (Homo sapiens, UniProt Q13546)	8.06
Nc1nc2cc(-c3ccc(CF)c(C(=O)NCC(F)(F)[C@@H](O)c4ccc(F)cc4)c3F)ccn2n1 [Example 294]	His-GST-TVMV-hRIPK1(1-324) (Homo sapiens, UniProt Q13546)	8.72
Nc1nc2cc(-c3ccc(Cl)c(C(=O)NCC(F)(F)C(O)c4ccc(C(F)(F)F)cc4F)c3F)ccn2n1 (stereo not shown) [Example 164]	His-GST-TVMV-hRIPK1(1-324) (Homo sapiens, UniProt Q13546)	8.55
COC(c1ccc(F)cc1)C(F)(F)CNC(=O)c1c(C)ccc(-c2ccn3nc(N)nc3c2)c1F (single isomer, unassigned) [Example 233]	His-GST-TVMV-hRIPK1(1-324) (Homo sapiens, UniProt Q13546)	8.59
Cc1cc(F)c(-c2ccn3nc(N)nc3c2)c(F)c1C(=O)NCC[C@H](O)c1ccc(Cl)cc1 [Example 277]	His-GST-TVMV-hRIPK1(1-324) (Homo sapiens, UniProt Q13546)	7.44
Cc1ccc(-c2ccn3nc(N)nc3c2)c(F)c1C(=O)NCC(C)(F)C(O)c1ccc(F)cc1 (single isomer, unassigned) [Example 202]	His-GST-TVMV-hRIPK1(1-324) (Homo sapiens, UniProt Q13546)	7.89
Cc1ccc(-c2ccn3nc(N)nc3c2)c(F)c1C(=O)NCCC(O)C1CCCC1 (stereo not shown) [Example 248]	His-GST-TVMV-hRIPK1(1-324) (Homo sapiens, UniProt Q13546)	7.66
Cc1ccc(-c2ccn3nc(N)nc3c2)c(F)c1C(=O)NC(C)CC(O)c1ccc(F)cc1 (single isomer, unassigned) [Example 36]	His-GST-TVMV-hRIPK1(1-324) (Homo sapiens, UniProt Q13546)	8.35
Cc1ccc(-c2ccn3nc(N)nc3c2)c(F)c1C(=O)NCC(F)(F)C1(c2ccc(F)cc2)COC1 [Example 246]	His-GST-TVMV-hRIPK1(1-324) (Homo sapiens, UniProt Q13546)	7.82
Cc1ccc(-c2ccn3nc(N)nc3c2)c(F)c1C(=O)NC(CF)CC(O)c1ccc(F)cc1 (single isomer, unassigned) [Example 25]	His-GST-TVMV-hRIPK1(1-324) (Homo sapiens, UniProt Q13546)	8.44
Nc1nc2cc(-c3ccc(Cl)c(C(=O)NCC(F)(F)C(O)c4ccc(Cl)c(F)c4)c3F)ccn2n1 (stereo not shown) [Example 190]	His-GST-TVMV-hRIPK1(1-324) (Homo sapiens, UniProt Q13546)	8.48
[2H]C([2H])([2H])c1cccc(C(O)C(F)(F)CNC(=O)c2c(C([2H])([2H])[2H])ccc(-c3ccn4nc(N)nc4c3)c2F)c1F (single isomer, unassigned) [Example 206]	His-GST-TVMV-hRIPK1(1-324) (Homo sapiens, UniProt Q13546)	8.11
Cc1ccc(-c2ccn3nc(N)nc3c2)c(F)c1C(=O)NCCC(C)(O)c1ccc(Cl)cc1 (single isomer, unassigned) [Example 59]	His-GST-TVMV-hRIPK1(1-324) (Homo sapiens, UniProt Q13546)	8.60
Cc1cc(F)c(-c2ccn3nc(N)nc3c2)cc1C(=O)NCC(F)(F)C(C)(O)c1ccc(Cl)cc1 (single isomer, unassigned) [Example 225]	His-GST-TVMV-hRIPK1(1-324) (Homo sapiens, UniProt Q13546)	7.72
[2H]C([2H])(CC([2H])(O)c1ccc(Cl)cc1)NC(=O)c1c(F)ccc(-c2ccn3nc(N)nc3c2)c1F (single isomer, unassigned) [Example 250]	His-GST-TVMV-hRIPK1(1-324) (Homo sapiens, UniProt Q13546)	7.89
Cc1ccc(-c2ccn3nc(N)nc3c2)c(F)c1C(=O)NCC(F)(F)C(O)c1ccnc(C(F)(F)F)c1 (single isomer, unassigned) [Example 261]	His-GST-TVMV-hRIPK1(1-324) (Homo sapiens, UniProt Q13546)	7.40
Nc1nc2cc(-c3ccc(Cl)c(C(=O)NCC(F)(F)C(O)c4cccc(C(F)(F)F)n4)c3F)ccn2n1 (single isomer, unassigned) [Example 254]	His-GST-TVMV-hRIPK1(1-324) (Homo sapiens, UniProt Q13546)	8.46
Cc1ccc(-c2ccn3nc(N)nc3c2)c(F)c1C(=O)NC(CF)CC(O)c1ccc(F)cc1 (single isomer, unassigned) [Example 26]	His-GST-TVMV-hRIPK1(1-324) (Homo sapiens, UniProt Q13546)	6.63
[2H]C([2H])([2H])OC(c1ccc(F)cc1)C(F)(F)CNC(=O)c1c(C)ccc(-c2ccn3nc(N)nc3c2)c1F (single isomer, unassigned) [Example 236]	His-GST-TVMV-hRIPK1(1-324) (Homo sapiens, UniProt Q13546)	8.47
[2H]C([2H])([2H])c1ccc(C(O)C(F)(F)CNC(=O)c2c(C([2H])([2H])[2H])ccc(-c3ccn4nc(N)nc4c3)c2F)cc1 (single isomer, unassigned) [Example 200]	His-GST-TVMV-hRIPK1(1-324) (Homo sapiens, UniProt Q13546)	8.33
Cc1c(F)cc(-c2ccn3nc(N)nc3c2)cc1C(=O)NCC(F)(F)C(O)c1ccc(F)cc1 (single isomer, unassigned) [Example 231]	His-GST-TVMV-hRIPK1(1-324) (Homo sapiens, UniProt Q13546)	8.70
Cc1ccc(-c2ccn3nc(N)nc3c2)c(F)c1C(=O)NC(CF)CC(O)c1ccc(F)cc1 (single isomer, unassigned) [Example 28]	His-GST-TVMV-hRIPK1(1-324) (Homo sapiens, UniProt Q13546)	8.29
CCc1ccc(-c2ccn3nc(N)nc3c2)c(F)c1C(=O)NCC[C@@H](O)c1ccc(Cl)cc1 [Example 156]	His-GST-TVMV-hRIPK1(1-324) (Homo sapiens, UniProt Q13546)	8.24
Nc1nc2cc(-c3ccc(Cl)c(C(=O)NCC(F)(F)C(O)c4cc(Cl)ccc4F)c3F)ccn2n1 (stereo not shown) [Example 181]	His-GST-TVMV-hRIPK1(1-324) (Homo sapiens, UniProt Q13546)	8.77
